# SYSTEM_TESTED: DNA topoisomerase 2-alpha (Homo sapiens) (UniProt P11388)
# Sequence (P11388 whole entry): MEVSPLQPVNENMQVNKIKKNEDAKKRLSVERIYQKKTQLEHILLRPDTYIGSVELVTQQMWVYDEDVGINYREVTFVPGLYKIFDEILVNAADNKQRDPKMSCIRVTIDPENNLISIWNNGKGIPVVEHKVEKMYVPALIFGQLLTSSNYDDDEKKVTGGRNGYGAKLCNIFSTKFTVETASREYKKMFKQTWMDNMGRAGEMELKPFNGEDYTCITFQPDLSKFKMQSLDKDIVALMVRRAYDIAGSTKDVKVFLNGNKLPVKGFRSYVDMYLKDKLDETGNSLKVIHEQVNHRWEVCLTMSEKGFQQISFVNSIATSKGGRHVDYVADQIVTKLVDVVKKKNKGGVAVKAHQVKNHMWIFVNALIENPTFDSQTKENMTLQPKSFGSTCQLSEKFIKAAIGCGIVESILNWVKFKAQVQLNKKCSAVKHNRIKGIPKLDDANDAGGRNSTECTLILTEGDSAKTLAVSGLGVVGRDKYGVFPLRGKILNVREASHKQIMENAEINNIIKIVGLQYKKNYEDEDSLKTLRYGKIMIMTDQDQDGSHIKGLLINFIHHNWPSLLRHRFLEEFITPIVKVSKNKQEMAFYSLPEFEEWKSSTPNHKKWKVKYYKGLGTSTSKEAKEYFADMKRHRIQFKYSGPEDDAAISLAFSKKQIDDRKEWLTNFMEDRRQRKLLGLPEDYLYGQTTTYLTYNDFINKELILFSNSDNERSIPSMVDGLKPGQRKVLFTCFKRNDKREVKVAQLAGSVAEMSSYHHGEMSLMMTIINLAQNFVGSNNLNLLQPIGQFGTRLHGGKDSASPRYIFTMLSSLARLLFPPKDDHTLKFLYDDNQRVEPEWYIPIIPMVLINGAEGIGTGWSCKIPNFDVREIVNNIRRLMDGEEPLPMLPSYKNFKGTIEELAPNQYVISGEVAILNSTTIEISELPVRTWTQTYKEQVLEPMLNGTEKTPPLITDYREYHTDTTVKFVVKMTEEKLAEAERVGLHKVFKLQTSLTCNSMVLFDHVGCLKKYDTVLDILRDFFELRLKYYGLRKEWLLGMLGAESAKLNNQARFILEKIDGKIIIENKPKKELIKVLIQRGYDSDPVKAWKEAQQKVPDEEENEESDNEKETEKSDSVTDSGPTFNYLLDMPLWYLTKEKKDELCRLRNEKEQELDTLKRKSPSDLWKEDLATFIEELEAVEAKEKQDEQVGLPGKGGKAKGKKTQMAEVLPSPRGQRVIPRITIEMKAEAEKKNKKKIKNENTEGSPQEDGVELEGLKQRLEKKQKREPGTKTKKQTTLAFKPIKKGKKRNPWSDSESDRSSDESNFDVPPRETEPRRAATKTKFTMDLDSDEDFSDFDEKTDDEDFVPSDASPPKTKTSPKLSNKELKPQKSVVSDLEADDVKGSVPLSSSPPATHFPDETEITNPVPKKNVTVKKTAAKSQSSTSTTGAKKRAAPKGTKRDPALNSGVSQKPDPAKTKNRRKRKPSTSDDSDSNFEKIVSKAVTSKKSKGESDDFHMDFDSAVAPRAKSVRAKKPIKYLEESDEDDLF
# METHOD_NOTES: Inhibition of recombinant human DNA topoisomerase 2alpha using supercoiled pBR322 DNA as substrate at 20 uM after 30 mins by agarose gel electrophoresis
MEASURED_ATTRIBUTE: inhibition (%)

Previously resolved entries follow.
COc1cc([C@@H]2c3cc4c(cc3[C@@H](O[C@@H]3O[C@@H]5CO[C@@H](C)O[C@H]5[C@H](O)[C@H]3O)[C@H]3COC(=O)[C@H]23)OCO4)cc(OC)c1O [ETOPOSIDE] = 24.4
Oc1cccc(-c2cc(-c3ccccc3)nc(-c3cccc(O)c3)c2)c1 = 17.5
Oc1ccc(-c2cc(-c3ccccc3O)cc(-c3ccccc3)n2)cc1 = 31.9
Oc1ccccc1-c1cc(-c2ccccc2)nc(-c2ccccc2O)c1 = 17.3

(a) Oc1cccc(-c2cc(-c3ccccc3O)cc(-c3ccccc3)n2)c1
(b) Oc1cccc(-c2cc(-c3ccccc3)nc(-c3ccccc3O)c2)c1
(c) Oc1ccc(-c2cc(-c3cccc(O)c3)cc(-c3ccccc3)n2)cc1
q: Order the records, beginning with the lowest inhibition and ending with the highest. Lab note: final answer is the ordered label list.
a: b, a, c

(P) Oc1cccc(-c2cc(-c3ccccc3)cc(-c3ccccc3O)n2)c1
(Q) Oc1ccc(-c2cc(-c3ccccc3)cc(-c3cccc(O)c3)n2)cc1
(R) Oc1ccc(-c2cc(-c3ccccc3)nc(-c3ccc(O)cc3)c2)cc1
q: # ascending order, key=inhibition Your task in answering is to list the labels in the requested order.
a: R, Q, P

(1) Oc1ccc(-c2cc(-c3ccccc3)nc(-c3cccc(O)c3)c2)cc1
(2) Oc1ccc(-c2cc(-c3ccccc3)cc(-c3ccccc3O)n2)cc1
q: Hi, I'm comparing two records. Which one has the lower inhibition, 1 or 2 ? API: response body contains the label of the selected item.
a: 1
(1: 14.6%, 2: 82.3%)

* * *

# SYSTEM_TESTED: DNA topoisomerase 1 (Homo sapiens) (UniProt P11387)
# Sequence (whole entry): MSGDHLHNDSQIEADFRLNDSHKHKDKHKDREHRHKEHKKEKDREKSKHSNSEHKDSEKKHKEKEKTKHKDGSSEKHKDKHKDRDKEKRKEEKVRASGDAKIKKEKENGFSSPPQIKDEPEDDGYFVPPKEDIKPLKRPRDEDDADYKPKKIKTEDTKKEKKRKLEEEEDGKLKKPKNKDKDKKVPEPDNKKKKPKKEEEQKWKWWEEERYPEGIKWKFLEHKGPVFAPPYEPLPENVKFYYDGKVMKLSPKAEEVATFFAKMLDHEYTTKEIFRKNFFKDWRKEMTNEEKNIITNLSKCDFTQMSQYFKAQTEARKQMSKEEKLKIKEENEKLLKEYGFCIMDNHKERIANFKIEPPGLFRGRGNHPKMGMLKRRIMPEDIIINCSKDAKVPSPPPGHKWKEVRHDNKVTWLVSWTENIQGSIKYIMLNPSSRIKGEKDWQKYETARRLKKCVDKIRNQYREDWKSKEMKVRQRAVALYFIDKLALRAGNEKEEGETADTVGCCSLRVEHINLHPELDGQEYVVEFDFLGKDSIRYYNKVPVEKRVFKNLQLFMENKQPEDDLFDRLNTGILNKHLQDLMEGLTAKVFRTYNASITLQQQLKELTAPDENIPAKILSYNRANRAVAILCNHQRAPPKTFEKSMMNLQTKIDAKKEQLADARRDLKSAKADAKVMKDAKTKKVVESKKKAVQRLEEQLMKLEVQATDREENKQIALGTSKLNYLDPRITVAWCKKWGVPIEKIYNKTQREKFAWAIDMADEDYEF
# METHOD_NOTES: Inhibition of recombinant human DNA topoisomerase 1 using supercoiled pBR322 DNA as substrate at 100 uM after 30 mins by agarose gel electrophoresis
MEASURED_ATTRIBUTE: inhibition (%)

Example cases with answers are listed next.
Oc1ccc(-c2cc(-c3ccccc3O)cc(-c3ccccc3)n2)cc1 = 0
Oc1ccccc1-c1cc(-c2ccccc2)nc(-c2ccccc2O)c1 = 0.5

(1) Oc1cccc(-c2cc(-c3ccccc3)cc(-c3ccccc3O)n2)c1
(2) Oc1ccc(-c2cc(-c3ccccc3)nc(-c3cccc(O)c3)c2)cc1
(3) Oc1ccc(-c2cc(-c3ccccc3)cc(-c3cccc(O)c3)n2)cc1
(4) Oc1ccc(-c2cc(-c3cccc(O)c3)cc(-c3ccccc3)n2)cc1
q: List by increasing inhibition. Provide your answer as the labels ordered per the instruction.
a: 3, 2, 4, 1

* * *

# SYSTEM_TESTED: DNA topoisomerase 2-alpha (Homo sapiens)
# METHOD_NOTES: Inhibition of recombinant human DNA topoisomerase 2alpha using supercoiled pBR322 DNA as substrate at 100 uM after 30 mins by agarose gel electrophoresis
MEASURED_ATTRIBUTE: inhibition (%)

Example compounds with recorded inhibition:
Oc1cccc(-c2cc(-c3ccccc3O)cc(-c3ccccc3)n2)c1 = 75.9
Oc1ccc(-c2cc(-c3ccccc3)nc(-c3ccc(O)cc3)c2)cc1 = 81.7
Oc1cccc(-c2cc(-c3ccccc3)nc(-c3ccccc3O)c2)c1 = 56.4
Oc1cccc(-c2cc(-c3ccccc3)nc(-c3cccc(O)c3)c2)c1 = 100
Oc1ccc(-c2cc(-c3ccccc3O)cc(-c3ccccc3)n2)cc1 = 87.9

(I) Oc1ccc(-c2cc(-c3cccc(O)c3)cc(-c3ccccc3)n2)cc1
(II) Oc1ccc(-c2cc(-c3ccccc3)cc(-c3cccc(O)c3)n2)cc1
q: Hi, I'm comparing two records. Which one has the lower inhibition, I or II ? Lab log: write the label of the selected item as the result.
a: I
(I: 41.4%, II: 96.8%)

* * *

# SYSTEM_TESTED: DNA topoisomerase 1 (Homo sapiens) (UniProt P11387)
# METHOD_NOTES: Inhibition of recombinant human DNA topoisomerase 1 using supercoiled pBR322 DNA as substrate at 100 uM after 30 mins by agarose gel electrophoresis
MEASURED_ATTRIBUTE: inhibition (%)

Check out these entries, answers already filled in.
Oc1cccc(-c2cc(-c3ccccc3O)cc(-c3ccccc3)n2)c1 = 6.7
Oc1ccc(-c2cc(-c3ccccc3)cc(-c3ccccc3O)n2)cc1 = 0
Oc1cccc(-c2cc(-c3ccccc3)nc(-c3ccccc3O)c2)c1 = 2.6
Oc1cccc(-c2cc(-c3ccccc3)nc(-c3cccc(O)c3)c2)c1 = 0.7

(I) Oc1ccc(-c2cc(-c3ccccc3)nc(-c3ccccc3O)c2)cc1
(II) Oc1ccc(-c2cc(-c3ccccc3)nc(-c3ccc(O)cc3)c2)cc1
q: Please indicate which item has the smaller measured inhibition: I versus II Give the label of your selection.
a: I
(I: 4.3%, II: 7.2%)

* * *

# SYSTEM_TESTED: DNA topoisomerase 2-alpha (Homo sapiens)
# METHOD_NOTES: Inhibition of recombinant human DNA topoisomerase 2alpha using supercoiled pBR322 DNA as substrate at 100 uM after 30 mins by agarose gel electrophoresis
MEASURED_ATTRIBUTE: inhibition (%)

Oc1ccc(-c2cc(-c3ccccc3)cc(-c3ccccc3O)n2)cc1 = 100
Oc1cccc(-c2cc(-c3ccccc3)cc(-c3ccccc3O)n2)c1 = 92.2
Oc1ccccc1-c1cc(-c2ccccc2)nc(-c2ccccc2O)c1 = 56.2

(I) Oc1ccc(-c2cc(-c3ccccc3)nc(-c3ccccc3O)c2)cc1
(II) Oc1ccc(-c2cc(-c3ccccc3)nc(-c3cccc(O)c3)c2)cc1
q: Determine, for I and II , which has the greater value of inhibition. Your answer should be the label attached to the chosen record.
a: II

Data provenance: ChEMBL document CHEMBL1944606
